target: HEK-293 cells transfected with dox-inducible human wild type FGFR3 (Homo sapiens (Human), UniProt P22607); assay: FGFR3 pFGFR cell assay (ELISA); type: cell-based; conditions: HEK-293 dox-inducible FGFR3, 1 hour compound, 100 ng/ml FGF-acidic
Sequence (P22607 23-806): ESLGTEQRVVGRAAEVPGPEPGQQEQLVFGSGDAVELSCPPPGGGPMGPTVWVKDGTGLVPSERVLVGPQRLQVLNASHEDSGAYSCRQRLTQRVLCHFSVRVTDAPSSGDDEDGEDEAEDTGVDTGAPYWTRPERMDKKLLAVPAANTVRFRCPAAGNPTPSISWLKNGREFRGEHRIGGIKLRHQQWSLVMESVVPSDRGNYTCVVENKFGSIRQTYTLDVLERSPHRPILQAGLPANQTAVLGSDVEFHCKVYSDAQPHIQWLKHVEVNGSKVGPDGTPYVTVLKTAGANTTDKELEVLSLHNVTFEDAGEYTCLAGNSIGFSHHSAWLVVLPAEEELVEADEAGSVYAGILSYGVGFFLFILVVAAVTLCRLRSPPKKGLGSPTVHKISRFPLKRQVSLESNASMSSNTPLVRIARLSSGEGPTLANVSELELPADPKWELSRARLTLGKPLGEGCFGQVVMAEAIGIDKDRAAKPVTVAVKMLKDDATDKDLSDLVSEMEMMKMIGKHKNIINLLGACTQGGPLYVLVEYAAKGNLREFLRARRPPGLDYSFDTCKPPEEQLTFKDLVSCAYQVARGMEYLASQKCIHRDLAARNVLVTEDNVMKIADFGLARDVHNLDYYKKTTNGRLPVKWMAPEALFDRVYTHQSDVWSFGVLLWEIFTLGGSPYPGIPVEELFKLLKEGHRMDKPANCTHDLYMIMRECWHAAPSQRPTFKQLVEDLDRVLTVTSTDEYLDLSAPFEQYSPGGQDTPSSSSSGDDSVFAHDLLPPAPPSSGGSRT
Examples of compounds with documented pIC50 follow.
When answering, recall that pIC50 equals minus log10 of the concentration in mol/L, and write that number alone.

A selection of reference data follows.
C=CC(=O)Nc1ccc(C(=O)N2CC[C@H](n3cc(-c4cc(OC)c5c(C#N)cnn5c4)cn3)C2)cc1C; 6.98
C=CC(=O)Nc1ccc(CN2CCC(n3cc(-c4cc(OC)c5c(C#N)cnn5c4)cn3)CC2)cc1; 7.55
C=CC(=O)N1CC(C#N)(C(=O)N2CCC(n3cc(-c4cc(OC)c5c(C#N)cnn5c4)cn3)CC2)C1; 7.00

Task item: # pIC50 lookup, item C=CC(=O)Nc1ccc(C(=O)N2CC[C@H](n3cc(-c4cc(OC)c5c(C#N)cnn5c4)cn3)C2)c(OC)c1
Reply: 6.51

Task item: Tell me the measured pIC50 of C=CS(=O)(=O)N1CC[C@H](C(=O)N2CCC(n3cc(-c4cc(OC)c5c(C#N)cnn5c4)cn3)CC2)C1 , please.
Reply: 8.05

Task item: Data request, read-out pIC50, for C=CC(=O)N1C2CC1CN(C(=O)N1CCC(n3cc(-c4cc(OC)c5c(C#N)cnn5c4)cn3)CC1)C2
Reply: 7.59

Task item: Data request, read-out pIC50, for C=CC(=O)N1CC(C(=O)N2CC[C@@H](n3cc(-c4cc(OC)c5c(C#N)cnn5c4)cn3)C2)C1
Reply: 6.18

Task item: Quick check: pIC50 of COc1cc(-c2cnn(C3CCN(C(=O)C4CN(C(=O)/C=C/CN(C)C)C4)CC3)c2)cn2ncc(Cl)c12 ?
Reply: 6.86

Task item: For the compound C=CC(=O)N1CCC(F)(C(=O)N2CCC(n3cc(-c4cc(OC)c5c(C#N)cnn5c4)cn3)CC2)CC1 , what pIC50 is on record?
Reply: 7.41

Task item: Item C=CC(=O)N1CC(CC)(C(=O)N2CCC(n3cc(-c4cc(OC)c5c(C#N)cnn5c4)cn3)CC2)C1 has what recorded pIC50?
Reply: 7.80

Task item: Any idea what its pIC50 is? The compound is COc1cc(-c2cnn(C3CCN(CC4CN(C(=O)/C=C/CN(C)C)C4)CC3)c2)cn2ncc(C#N)c12
Reply: 7.10

Task item: I have this compound here, C=CC(=O)N1CC(C(=O)N2CCC(n3cc(-c4cc(-c5ccccc5F)c5c(C#N)cnn5c4)cn3)CC2)C1 , and I need its recorded pIC50.
Reply: 7.82

Task item: Entry C=CS(=O)(=O)N1CCC2(CC1)CC(C(=O)N1CCC(n3cc(-c4cc(OC)c5c(C#N)cnn5c4)cn3)CC1)C2 has what pIC50?
Reply: 7.85

Task item: Can you look up the measured pIC50 of C=CC(=O)N1CCC(C#N)(C(=O)N2CCC(n3cc(-c4cc(OC)c5c(C#N)cnn5c4)cn3)CC2)C1 (centres unmarked) for me?
Reply: 7.82

---

Target: FGFR3 (SEQ ID NO: 5, amino acids 449-759) (Homo sapiens (Human), UniProt P22607)
Sequence (P22607 449-759): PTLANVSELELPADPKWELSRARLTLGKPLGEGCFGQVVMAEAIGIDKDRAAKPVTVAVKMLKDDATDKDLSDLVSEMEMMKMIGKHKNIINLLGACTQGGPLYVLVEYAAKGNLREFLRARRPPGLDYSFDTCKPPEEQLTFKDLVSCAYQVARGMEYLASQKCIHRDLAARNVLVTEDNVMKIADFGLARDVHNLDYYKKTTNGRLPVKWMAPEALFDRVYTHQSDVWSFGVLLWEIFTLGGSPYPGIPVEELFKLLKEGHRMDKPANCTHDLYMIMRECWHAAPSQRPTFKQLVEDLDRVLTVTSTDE
Test: LC/MS FGFR3 kobs assay (covalent protein modification)
Type: binding
Details: 500 nM FGFR3, 3 μM compound
Protocol: The LC/MS FGFR1 and FGFR3 kobs assays were conducted as follows. […] At each time point, the reaction was quenched with 20 μL of 0.4% formic acid. The extent of protein modification by each compound was determined by LC/MS on an Agilent Technologies 6520 Q-TOF LC/MS. […] Data analysis included five steps. First, the signals for the “DMSO Controls” were analyzed to determine the percent of signal associated with unmodified FGFR1 or FGFR3 at each time point. […]
Quick rule for you: FGFR3 Enz kobs under 0.02 min⁻¹ gets true (1), anything else gets false (0).

Completed entries (count: 6):
C=CC(=O)N1C[C@H]2C[C@@H]1CN2C(=O)N1CCC(n2cc(-c3cc(OC)c4c(C#N)cnn4c3)cn2)CC1 [Example 5]; true (1)
C=CS(=O)(=O)N[C@@H]1CC[C@H](C(=O)N2CCC(n3cc(-c4cc(OC)c5c(C#N)cnn5c4)cn3)CC2)C1 [Example 191]; false (0)
C=CS(=O)(=O)N1CC[C@H](C(=O)N2CCC(n3cc(-c4cc(OC)c5c(C#N)cnn5c4)cn3)CC2)C1 [Example 189]; false (0)
C=CC(=O)N1CC[C@H](C(=O)N2CC[C@@H](n3cc(-c4cc(OC)c5c(C#N)cnn5c4)cn3)C2)C1 [Example 57]; true (1)
C=CC(=O)N1CC(C(=O)N2CCC3(C2)CN(c2ccc(-c4cc(OC)c5c(C#N)cnn5c4)cn2)C3)C1 [Example 103]; false (0)
C=CC(=O)N[C@H]1CC[C@@H](C(=O)N2CCC(n3cc(-c4cc(OC)c5c(C#N)cnn5c4)cn3)CC2)CC1 [Example 20]; true (1)

Could you now consider this next compound?
Task item: For C=CC(=O)N1CC(C(=O)N2C[C@H]3C[C@@H]2CN3c2ccc(-c3cc(OC)c4c(C#N)cnn4c3)cn2)C1 [Example 107] , is the recorded FGFR3 Enz kobs below the cut-off of 0.02 min⁻¹?
Reply: true (1)
